For each of the compounds below, state its T/C.
- Test system: CD2F1 mice, L1210 leukemia ip, survival T/C
- procedureDetails: NCI In Vivo Anticancer Drug Screen. Data for tumor model L1210 Leukemia (intraperitoneal) in CD2F1 (CDF1) mice
- measurementConditions: endpoint: mean survival time; dose: 50.0 mg/kg/injection; schedule: Q01DX009 (ip); vehicle: saline; higher = longer survival
Toxic doses and inconclusive results are not listed. Non-standard residues stand in square brackets, D forms with d. Residues, ends and D or L forms follow the SMILES beside them. ξ: configuration not given here. ξF = NC(Cc1ccccc1)C(=O)O; Ac5c = NC1(C(=O)O)CCCC1

Specify measured T/C for C[S+](C)C .
100 % of control

Specify measured T/C for O=S(=O)(O)SCCN1CCCCC1 .
104 % of control

Specify measured T/C for CC1(C)N=C(N)N=C(N)N1c1ccc(CCC(=O)Nc2ccc(S(=O)(=O)F)cc2)c(Cl)c1 .
120 % of control

Specify measured T/C for COc1cc2c(cc1OC)CCN=C2 .
106 % of control

Specify measured T/C for NC(Cc1ccccc1)C(=O)NC1(C(=O)O)CCCC1 (stereo not drawn) (H-[ξF]-[Ac5c]-OH) .
100 % of control

Specify measured T/C for CCOC(=O)CO .
104 % of control

Specify measured T/C for S=C1CCNCC1 .
104 % of control

Specify measured T/C for CCN(CC)CCCC(C)Nc1ncnc(N)c1[N+](=O)[O-] (stereo not drawn) .
92 % of control

Specify measured T/C for CN(C)C(=O)c1cccc(NC(=O)NCc2cccc(N3C(N)=NC(N)=NC3(C)C)c2)c1 .
95 % of control

Specify measured T/C for CN(C)C(=O)c1cccc(COc2ccc(N)cc2Cl)c1 .
113 % of control

Specify measured T/C for O=C(O)C1C2OC(C(Br)C2Br)C1C(=O)O (stereo not drawn) .
102 % of control

Specify measured T/C for O=C(O)c1c(F)c(F)c(F)c(C(=O)O)c1F .
95 % of control

Specify measured T/C for CC12CCC(=O)C=C1CCCC2=O (stereo not drawn) .
98 % of control

* * *

- System: CD2F1 mice, L1210 leukemia ip, survival T/C
- procedureDetails: NCI In Vivo Anticancer Drug Screen. Data for tumor model L1210 Leukemia (intraperitoneal) in CD2F1 (CDF1) mice
- measurementConditions: endpoint: mean survival time; dose: 50.0 mg/kg/injection; schedule: Q01DX009 (ip); vehicle: saline with Tween-80; higher = longer survival
Inconclusive results and toxic doses are left out.
assayMetric: T/C

Specify measured T/C for ClC1CCC[N-]C1.ClC1CCC[N-]C1.[Cl][Pt+2][Cl] (centres undefined) .
108 % of control

Specify measured T/C for CC1CNC(=S)O1 (centres undefined) .
100 % of control

Specify measured T/C for COc1cc(/C=N/NC(=O)CNC(=O)NCc2ccco2)ccc1O .
92 % of control

Specify measured T/C for Cc1csc2ncn(C3OC(CO)C(O)C3O)c(=O)c12 (centres undefined) .
94 % of control

Specify measured T/C for O=C(OCc1ccccc1)C1CC1 .
104 % of control

Specify measured T/C for CC(=O)OC(C)Cc1ccccc1 (centres undefined) .
96 % of control

Specify measured T/C for Cc1ccc([N+](=O)[O-])c(P(=O)(O)O)c1 .
88 % of control

Specify measured T/C for CCCCNc1cc(Nc2ccc(Br)cc2)nc(N)n1 .
98 % of control

Specify measured T/C for OC(c1ccccc1)(C1SCCCS1)C1SCCCS1 .
94 % of control

Specify measured T/C for CN=C(N)N/N=C(\C)c1ccc2c(c1)Cc1ccccc1-2 .
108 % of control

Specify measured T/C for CCCCCCCCC(=O)N(C)OC .
102 % of control

Specify measured T/C for Cc1ccc(CO)cc1C .
101 % of control

Specify measured T/C for CCCSc1ccc2nc(NC(=O)OC)[nH]c2c1 .
93 % of control

Specify measured T/C for Cc1ccc(NC(=O)OCCOc2ccc(Cl)cc2)cc1C .
96 % of control

* * *

For each of the molecules below, state its T/C.
- Test system: CD2F1 mice, L1210 leukemia ip, survival T/C
- procedureDetails: NCI In Vivo Anticancer Drug Screen. Data for tumor model L1210 Leukemia (intraperitoneal) in CD2F1 (CDF1) mice
- measurementConditions: endpoint: mean survival time; dose: 400.0 mg/kg/injection; schedule: Q04DX003 (ip); vehicle: saline sonified; higher = longer survival
Inconclusive results and toxic doses are left out.

Specify measured T/C for CC1CC(C)(C)CC2CC(C(=O)O)(C(=O)O)CC12 (centres undefined) .
100 % of control

Specify measured T/C for CN(C)S(=O)(=O)c1ccccc1C(=O)O .
93 % of control

Specify measured T/C for COc1cc(OC)cc(C(=O)Cl)c1 .
91 % of control

Specify measured T/C for CC(=O)NCCc1ccccc1 .
97 % of control

* * *

- System: CD2F1 mice, L1210 leukemia ip, survival T/C
- procedureDetails: NCI In Vivo Anticancer Drug Screen. Data for tumor model L1210 Leukemia (intraperitoneal) in CD2F1 (CDF1) mice
- measurementConditions: endpoint: mean survival time; dose: 12.5 mg/kg/injection; schedule: Q01DX009 (ip); vehicle: other; higher = longer survival
Toxic doses and inconclusive results are not listed.
assayMetric: T/C

Find the measured T/C of c1ccc(C[Se]Cc2ccccc2)cc1 with CD2F1 mice, L1210 leukemia ip, survival T/C as test system.
97 % of control

Find the measured T/C of O=C(C1CCCCC1)C1CCC2(CCCCC2)CC1 with CD2F1 mice, L1210 leukemia ip, survival T/C as test system.
92 % of control

Find the measured T/C of COc1ccc(CCNC(=O)c2ccc(OC)c(OC)c2)cc1OC with CD2F1 mice, L1210 leukemia ip, survival T/C as test system.
104 % of control

Find the measured T/C of CC(=O)OC1C(CNC(=O)N(C)N=O)OC(OC2(CNC(=O)N(C)N=O)OC(CNC(=O)N(C)N=O)C(OC(C)=O)C2OC(C)=O)C(OC(C)=O)C1OC(C)=O (configuration not stated) with CD2F1 mice, L1210 leukemia ip, survival T/C as test system.
93 % of control

Find the measured T/C of COC1=CCc2c(OC)ccc(OC)c2C1 with CD2F1 mice, L1210 leukemia ip, survival T/C as test system.
103 % of control

Find the measured T/C of Cc1cc(=O)oc2cc(OC(=O)C(CCCCN)NC(=O)OCc3ccccc3)ccc12 (configuration not stated) with CD2F1 mice, L1210 leukemia ip, survival T/C as test system.
107 % of control

Find the measured T/C of CN(C)N=Nc1c(F)c(F)c(F)c(F)c1F with CD2F1 mice, L1210 leukemia ip, survival T/C as test system.
98 % of control

* * *

For each of the molecules below, state its T/C.
- System: CD2F1 mice, L1210 leukemia ip, survival T/C
- procedureDetails: NCI In Vivo Anticancer Drug Screen. Data for tumor model L1210 Leukemia (intraperitoneal) in CD2F1 (CDF1) mice
- measurementConditions: endpoint: mean survival time; dose: 100.0 mg/kg/injection; schedule: Q01DX009 (ip); vehicle: saline with Tween-80; higher = longer survival
Toxic doses and inconclusive results are not listed. Positions of bridges follow the written chain, without caps; N, C: chain ends. Residues, ends and D or L forms follow the SMILES beside them. Chains are numbered I, II in the order given. *: point of attachment. Bz = O=C(c1ccccc1)*

Specify measured T/C for O=C1CCCCCCCCCCC1C(O)(C(F)(F)F)C(F)(F)F (centres undefined) .
96 % of control

Specify measured T/C for O=C1CCC2=C(CCC3(C2)OCCO3)N1 .
94 % of control

Specify measured T/C for COC(=O)Nc1cccc(OC(=O)NC(C)(C)CC(C)(C)C)c1 .
97 % of control

Specify measured T/C for O=C(OCc1ccccc1)C1CC1 .
100 % of control

Specify measured T/C for N\C([S-])=N/N=C\C(=N/N=C(\N)[S-])C(O)C(O)C(O)CO.[Pd+2] (centres undefined) .
104 % of control

Specify measured T/C for COC(=O)C(Br)C1CCCCC1 (centres undefined) .
102 % of control

Specify measured T/C for COC(=O)C1C=CCC=C1OC (centres undefined) .
113 % of control

Specify measured T/C for O=C(O)c1ccccc1C(=O)Nc1ccccc1C(F)(F)F .
104 % of control

Specify measured T/C for C/C=C(\C)C(C)(C#N)Nc1ccccc1 (centres undefined) .
100 % of control

Specify measured T/C for O=Cc1cc(Cl)ccc1O .
108 % of control

Specify measured T/C for OCc1ccc[n+](CCc2c[nH]c3ccccc23)c1 .
95 % of control

Specify measured T/C for CCCCO.[Ti] .
103 % of control

Specify measured T/C for O=c1c2ccccc2[nH]c2cccc([N+](=O)[O-])c12 .
102 % of control

Specify measured T/C for O=Cc1c(O)c2ccccc2[nH]c1=O .
106 % of control

Specify measured T/C for COC(=O)CCC(=O)Nc1ccccc1C(C)=O .
101 % of control

Specify measured T/C for COc1ccc(/C=N\NC(=O)CNC(=O)Nc2cccc(C(F)(F)F)c2)cc1OC .
96 % of control

Specify measured T/C for O=C(NCCC1CCC2OC2C1)c1ccccc1 (centres undefined) .
96 % of control

Specify measured T/C for COC(=O)C(CSSCC(NC(=O)CNC(=O)c1ccccc1)C(=O)OC)NC(=O)CNC(=O)c1ccccc1 (stereo not drawn) (I: Bz-Gly-Cys-OMe / II: Bz-Gly-Cys-OMe; disulfide I:2-II:2; configuration not given here) .
87 % of control

Specify measured T/C for CC1(C)CC(O)(Cc2ccccc2)C(C)(O)c2ccccc21 (centres undefined) .
102 % of control

Specify measured T/C for C[C@@H]1C[C@@]2(C)[C@@H](CC[C@@H]3[C@@H]2CC[C@@]2(C)[C@H]3CC[C@]2(C)O)CC1=O .
94 % of control

Specify measured T/C for CC1(C)C2=CCCC3(OCCO3)C2(C)CCC1O (centres undefined) .
104 % of control

Specify measured T/C for CCOC1C=CCCC1 (centres undefined) .
95 % of control

Specify measured T/C for CCOC(=O)c1ccc(N(CC)CC)cc1 .
95 % of control

Specify measured T/C for Cc1cc(Cl)ccc1NC(=O)CCl .
93 % of control

Specify measured T/C for O=C(Nc1nc2c(ccc3ccccc32)s1)Nc1ccccc1F .
97 % of control

Specify measured T/C for O/N=C1/CCCC/C1=C/c1ccccc1 .
103 % of control

Specify measured T/C for O=C(O)C(O)C(O)C(O)C(O)CO.[Mn] (centres undefined) .
107 % of control

Specify measured T/C for CCOC(=O)c1ccc(Cl)cc1 .
95 % of control

Specify measured T/C for CCCC/C=C/COCC .
94 % of control

Specify measured T/C for CCCCCCCC(=O)Nc1c(C)cc(C)cc1C .
91 % of control

Specify measured T/C for Nc1nnnn1-c1cccc(Cl)c1 .
96 % of control

Specify measured T/C for S=C(Nc1ccccc1)N1CCCC1 .
100 % of control

Specify measured T/C for CCCCCCCC(=O)Nc1cc(C(F)(F)F)ccc1Cl .
93 % of control

Specify measured T/C for CC(C)(S)CNCCSC(=O)c1ccccc1 .
103 % of control

Specify measured T/C for O=CNc1ccccc1 .
97 % of control

Specify measured T/C for O=S(=O)(c1ccccc1)c1ccc(Br)cc1 .
94 % of control

Specify measured T/C for O=C1OCCN1S(=O)(=O)c1ccc(Cl)cc1 .
95 % of control

Specify measured T/C for CN(C)N=Nc1cc(C(F)(F)F)cc(C(F)(F)F)c1 .
98 % of control

Specify measured T/C for O=Cc1ccc([N+](=O)[O-])s1 .
109 % of control

Specify measured T/C for C=C1C[C@@H](O)C[C@@]2(C)C[C@@H]3OC(=O)C(=C)[C@@H]3C[C@H]12 .
104 % of control

Specify measured T/C for Cc1ccccc1N1C(=O)CSC1=S .
98 % of control

Specify measured T/C for O=C(CNC(=O)Nc1cccc(C(F)(F)F)c1)N/N=C/c1ccccc1Cl .
103 % of control

Specify measured T/C for CCCCNC(=S)N(CCCC)CCCC .
102 % of control

Specify measured T/C for O[O][Sn][c]1ccccc1 .
89 % of control

Specify measured T/C for Cc1cc(C)cc(C(C)(C)C)c1 .
96 % of control

Specify measured T/C for Cc1ccc(NC(=O)/C=C/C(=O)O)cc1 .
105 % of control

Specify measured T/C for CCOC(=O)Nc1c(C)noc1NC(C)=O .
95 % of control

Specify measured T/C for Cc1ccc(S(=O)(=O)OCC(C)C)cc1 .
101 % of control

Specify measured T/C for CCCCNc1cc(Nc2ccc(Br)cc2)nc(N)n1 .
97 % of control

Specify measured T/C for c1csc(CCc2nc3ccccc3o2)c1 .
93 % of control

Specify measured T/C for NC(=O)NC1CCCC1 .
107 % of control

Specify measured T/C for OC(c1ccccc1)(c1ccccc1)c1ccc(Cl)cc1 .
97 % of control

Specify measured T/C for O=C1c2cccc(Oc3ccccc3)c2C(=O)c2cccc(Oc3ccccc3)c21 .
94 % of control

Specify measured T/C for Cc1ccc([N+](=O)[O-])c(P(=O)(O)O)c1 .
87 % of control
